Reference source for all entries: patent EP4212633A1

# tested_on: SARS-CoV-2 pseudoknot
# assay_name: ligand observed fluorescence titrations (binding to the pseudoknot)
# stated_conditions: binding to the pseudoknot structure, Figure 3
pKd: −log10 of the molar value.
experimental_readout: pKd

INSERT INTO results (smiles_repr, assay_result) VALUES
  ('Cc1ccc(C)n1CCC(=O)Nc1ccc2nc[nH]c(=O)c2c1', 3.85),
  ('COc1ccc(-c2cc(-c3ccncc3)nc(N3C[C@H](N)C[C@H](N)C3)n2)cc1', 6.52);
